// data source = a melting point compilation (Tetko et al.)

- Molecular String: "COC(=O)C1=C(C(=O)OC)[C@@H]2C=C[C@H]1c1cc3ccccc3c(-c3ccccc3)c12"
  melting point / °C: 219
- Molecular String: "CNC(=O)Oc1cc(C)c(C)c(C)c1"
  melting point / °C: 110
- Molecular String: "O=[N+]([O-])c1cccc(C=NO)c1"
  melting point / °C: 124
- Molecular String: "COC(=O)c1c(-c2c(Cl)cccc2Cl)noc1C"
  melting point / °C: 115

* * *

Measured melting point, listed per entry for reference.
Outcome Measure: melting point

- Molecule: "CCOC(=O)C(C#N)=NNc1ccc(Cl)cc1"
  Outcome Measure: "melting point"
  Value Reported: "161 to 162 °C"
- Molecule: "O=C(O)C=Cc1cccc(Cl)c1"
  Outcome Measure: "melting point"
  Value Reported: "163 to 166 °C"
- Molecule: "CC1(C)CC(=O)c2cc(-c3ccccc3)n(Cc3cccnc3)c2C1"
  Outcome Measure: "melting point"
  Value Reported: "146 to 148 °C"
- Molecule: "N#CC1=C(C#N)C(=O)C(NCc2ccccc2)=C(Cl)C1=O"
  Outcome Measure: "melting point"
  Value Reported: "232 to 234 °C"
- Molecule: "CNCc1csc(C2CCN(C(=O)OC(C)(C)C)CC2)n1"
  Outcome Measure: "melting point"
  Value Reported: "43 to 47 °C"
- Molecule: "O=C(O)C1(C(=O)O)CC1"
  Outcome Measure: "melting point"
  Value Reported: "134 to 138 °C"
- Molecule: "COc1ccc2c(c1)CC1(CCC(O)(c3ccc(C(C)(C)C)cc3)CC1)C2O (configuration not stated)"
  Outcome Measure: "melting point"
  Value Reported: "102 to 106 °C"
- Molecule: "Cc1nccc(O)c1OCc1ccc(Cl)cc1Cl"
  Outcome Measure: "melting point"
  Value Reported: "218 to 222 °C"
- Molecule: "O=C(O)CS(=O)(=O)c1ccccc1"
  Outcome Measure: "melting point"
  Value Reported: "112 to 114 °C"
- Molecule: "N#Cc1ccc(N)c(Cl)c1"
  Outcome Measure: "melting point"
  Value Reported: "101 °C"
- Molecule: "Cc1cc(Oc2ncccc2[N+](=O)[O-])cc(C)c1Cl"
  Outcome Measure: "melting point"
  Value Reported: "80 to 82 °C"
- Molecule: "O=C(Cl)c1cccc(-c2nccs2)c1"
  Outcome Measure: "melting point"
  Value Reported: "80 to 80.5 °C"
- Molecule: "O=C1C(=CC2C(=O)N(c3ccccc3)N=C2c2ccc([N+](=O)[O-])cc2)C(c2ccc([N+](=O)[O-])cc2)=NN1c1ccccc1 (configuration not stated)"
  Outcome Measure: "melting point"
  Value Reported: "283 to 284 °C"
- Molecule: "COc1cccc(-c2ccc(C(=O)O)o2)c1"
  Outcome Measure: "melting point"
  Value Reported: "169 to 170 °C"
- Molecule: "COC(=O)c1ccc(C)cc1C"
  Outcome Measure: "melting point"
  Value Reported: "-2 °C"
- Molecule: "O=C(O)CCCn1c(C(F)(F)F)nc2ccccc21"
  Outcome Measure: "melting point"
  Value Reported: "143 to 145 °C"
- Molecule: "CCOC(=O)C=Cc1ccc(OC)c(OC)c1Cl"
  Outcome Measure: "melting point"
  Value Reported: "68 to 69 °C"
- Molecule: "CCOP(=S)(OCC)Oc1cnc2ccccc2n1"
  Outcome Measure: "melting point"
  Value Reported: "31.5 °C"
- Molecule: "CC1=NN(c2cccc(Cl)c2)C(=O)C1"
  Outcome Measure: "melting point"
  Value Reported: "125 to 128 °C"
- Molecule: "Cc1ccc(C2(C(=O)O)CCCCC2)cc1"
  Outcome Measure: "melting point"
  Value Reported: "166 to 170 °C"
- Molecule: "Nc1ncc(F)cc1F"
  Outcome Measure: "melting point"
  Value Reported: "57 °C"
- Molecule: "C=CC(C)O (configuration not stated)"
  Outcome Measure: "melting point"
  Value Reported: "-100 °C"
- Molecule: "CCOCCCN"
  Outcome Measure: "melting point"
  Value Reported: "-70 °C"
- Molecule: "CC(C)(C)OC(=O)NCc1ccc(Br)s1"
  Outcome Measure: "melting point"
  Value Reported: "51 to 54 °C"
- Molecule: "ON=C1CCCc2ccccc21"
  Outcome Measure: "melting point"
  Value Reported: "103 to 105 °C"
- Molecule: "O=[N+]([O-])c1cc(C(F)(F)F)ccc1N1CCCCC1"
  Outcome Measure: "melting point"
  Value Reported: "48 to 50 °C"
- Molecule: "CCc1[nH]c2ccccc2c1C"
  Outcome Measure: "melting point"
  Value Reported: "62 to 65 °C"

* * *

Outcome Measure: melting point (°C)

- Molecule: "CC1(C)CC(O)CC(C)(C)N1"
  Value Reported: 131
- Molecule: "CC(C)NCC(O)COc1ccc(O)cc1 (stereo unspecified)"
  Value Reported: 128
- Molecule: "CCOC(=O)C1=NC2Sc3sc(C(=O)OCC)cc3C(c3ccccc3)C2=C1N (stereo unspecified)"
  Value Reported: 133
- Molecule: "Oc1ccc(C2=Cc3ccccc3C(c3ccccc3)O2)cc1 (stereo unspecified)"
  Value Reported: 121
- Molecule: "CN(N=O)C1=CC(=O)C2(C)CCC1C2(C)C (stereo unspecified)"
  Value Reported: 167
- Molecule: "ClCC1C(CCl)C2(Cl)C(Cl)=C(Cl)C1(Cl)C2(Cl)Cl (stereo unspecified)"
  Value Reported: 105
- Molecule: "Cc1cc(C)nc(Nc2ccccc2)n1"
  Value Reported: 96.3

* * *

- Compound: "CC(C)(C)c1cc(C(C)(C)C)c([N+](=O)[O-])c(C(C)(C)C)c1"
  melting point: "205 to 206 °C"
- Compound: "Cc1cc(CO)n(C)n1"
  melting point: "52 to 54 °C"
- Compound: "Cn1ccc2cc(N)ccc21"
  melting point: "102 to 103 °C"
- Compound: "CC1CCC2(C)C3=C(C(=O)C4(CC4C)C(O)C3=O)C(O)C(O)C2C1C (configuration not stated)"
  melting point: "177 to 178 °C"
- Compound: "COc1ccc(Oc2ccc(C(F)(F)F)cc2[N+](=O)[O-])cc1"
  melting point: "45 to 47 °C"
- Compound: "CSc1sc(C(=O)O)c(Cl)c1S(=O)(=O)C(C)C"
  melting point: "227 to 230 °C"
- Compound: "CSc1nc2nc(SC)n(C)c2c(=O)n1-c1ccc(F)cc1"
  melting point: "177 to 179 °C"

* * *

Measured melting point, listed per entry for reference.

- Compound: "O=C(O)C12CC3CC(C1)CC(C(F)(F)C(F)C(F)(F)F)(C3)C2 (stereo unspecified)"
  melting point: "115 to 117 °C"
- Compound: "O=c1onc2cnc3ccccc3n12"
  melting point: "160 to 170 °C"
- Compound: "O=C(Cl)c1ccc2occc2c1"
  melting point: "67 to 68 °C"
- Compound: "COc1cc(I)c(OC)cc1C"
  melting point: "84 to 86 °C"
- Compound: "Nn1c(S(=O)(=O)O)nc2ccccc21"
  melting point: "252 to 253 °C"
- Compound: "Oc1ccc(-n2cccc2)cc1"
  melting point: "119 to 124 °C"
- Compound: "N#Cc1ccc(CN2CCCCC2)cc1"
  melting point: "38 to 40 °C"
- Compound: "O=C(Cc1cc(CC(=O)c2ccccc2)c([N+](=O)[O-])cc1[N+](=O)[O-])c1ccccc1"
  melting point: "170 to 171 °C"
- Compound: "O=C(Nc1nnc(-c2ccc(Cl)cc2)o1)c1ccc(Cl)cc1"
  melting point: "278 to 279 °C"
- Compound: "CC(=O)N1CCSC1C(=O)O (stereo unspecified)"
  melting point: "114 to 116 °C"
- Compound: "Cc1onc(-c2ccccc2)c1CN"
  melting point: "66 to 68 °C"

* * *

Measured melting point, listed per entry for reference.
Outcome Measure: melting point

- Compound: "O=[N+]([O-])c1cccc(-c2noc(CCl)n2)c1"
  Outcome Measure: "melting point"
  Value Reported: "60 to 62 °C"
- Compound: "O=S(=O)(Cl)c1ccc(-c2ccccc2)s1"
  Outcome Measure: "melting point"
  Value Reported: "85 to 87 °C"
- Compound: "COC(=O)C1Cc2c3c(c4c(c2CC1C(=O)OC)CC(C(=O)OC)C(C(=O)OC)C4)CC(C(=O)OC)C(C(=O)OC)C3 (configuration not stated)"
  Outcome Measure: "melting point"
  Value Reported: "261 to 263 °C"
- Compound: "O=C(OCc1ccccc1)N1c2ccccc2CC1CO (configuration not stated)"
  Outcome Measure: "melting point"
  Value Reported: "67 to 71 °C"
- Compound: "Cn1c(N)c(C=O)c(=O)n(C)c1=O"
  Outcome Measure: "melting point"
  Value Reported: "199 to 201 °C"
- Compound: "O=Cc1ccccc1OCc1ccccc1Cl"
  Outcome Measure: "melting point"
  Value Reported: "84 to 86 °C"
- Compound: "COc1ccc2sc(S)nc2c1"
  Outcome Measure: "melting point"
  Value Reported: "196 °C"
- Compound: "Clc1ccc(C2Nn3c(nnc3-c3ccccc3)S2)cc1 (configuration not stated)"
  Outcome Measure: "melting point"
  Value Reported: "196 to 198 °C"
- Compound: "O=C(Nc1c(Cl)cc(Cl)cc1Cl)C(C(F)(F)F)C(F)(F)F"
  Outcome Measure: "melting point"
  Value Reported: "218 to 220 °C"
- Compound: "COc1cccc(OCc2ccccc2)c1C#N"
  Outcome Measure: "melting point"
  Value Reported: "70 to 72 °C"
- Compound: "COC(=O)C1=C(N)CCN(Cc2ccccc2)C1"
  Outcome Measure: "melting point"
  Value Reported: "87 to 89 °C"
- Compound: "CNc1ccc(OC)cc1"
  Outcome Measure: "melting point"
  Value Reported: "33 to 36 °C"
- Compound: "CC(=O)Nc1ccc(-c2ccc(/N=N/c3ccccc3)cc2)cc1"
  Outcome Measure: "melting point"
  Value Reported: "236 to 237 °C"
- Compound: "CSc1nc(N)cc(Cl)n1"
  Outcome Measure: "melting point"
  Value Reported: "130 to 134 °C"
- Compound: "CC1CCC2(OC1)OC1CC3C4CC=C5CC(O)CCC5(C)C4CCC3(C)C1C2C (configuration not stated)"
  Outcome Measure: "melting point"
  Value Reported: "206 °C"
- Compound: "NC(CC(F)(F)F)C(=O)O (configuration not stated)"
  Outcome Measure: "melting point"
  Value Reported: "256 to 258 °C"
- Compound: "COc1ccc(C(N)CCO)cc1 (configuration not stated)"
  Outcome Measure: "melting point"
  Value Reported: "82 to 86 °C"
